Measured log10 MIC by item
- Test system: visna virus (strain K184)
- Protocol text: CPE Inhibition Test (Established Monolayer) for Lentiviruses (in SCP cells)
- Assay type: cell-based
- Conditions: Visna-maedi virus, read-out: MIC Visna Virus (minimum concentration giving complete protection of the cell monolayers)
Experimental readout: log10 MIC (log10 of the value in µg/mL)

{"Compound": "Nc1nc2c(ncn2OCC(CO)CCP(=O)(O)O)c(=O)[nH]1 (stereo not shown)", "Measured on": "visna virus (strain K184)", "Quantitative readout": 0.00}
{"Compound": "Nc1ncnc2c1ncn2OC(CO)CCP(=O)(O)O (stereo not shown)", "Measured on": "visna virus (strain K184)", "Quantitative readout": 1.48}
{"Compound": "Nc1nc(N)c2ncn(OCCCCP(=O)(O)O)c2n1", "Measured on": "visna virus (strain K184)", "Quantitative readout": 1.00}
{"Compound": "Nc1nc2c(ncn2OCCCCP(=O)(O)O)c(=O)[nH]1", "Measured on": "visna virus (strain K184)", "Quantitative readout": 0.00}
{"Compound": "Nc1nc2c(ncn2OCCCP(=O)(O)O)c(=O)[nH]1", "Measured on": "visna virus (strain K184)", "Quantitative readout": 0.48}
{"Compound": "Nc1nc2c(ncn2OCC(O)CCP(=O)(O)O)c(=O)[nH]1 (stereo not shown) [Example 13, 9-(2-Hydroxy-4-phosphonobutoxy)guanine]", "Measured on": "visna virus (strain K184)", "Quantitative readout": 1.00}
{"Compound": "Nc1ncnc2c1ncn2OCC(O)CCP(=O)(O)O (stereo not shown) [Example 15, 9-(2-Hydroxy-4-phosphonobutoxy)adenine]", "Measured on": "visna virus (strain K184)", "Quantitative readout": 2.00}
{"Compound": "Nc1ncnc2c1ncn2OCCCCP(=O)(O)O", "Measured on": "visna virus (strain K184)", "Quantitative readout": 2.00}
{"Compound": "Nc1nc(N)c2ncn(OCC(CO)CCP(=O)(O)O)c2n1 (stereo not shown)", "Measured on": "visna virus (strain K184)", "Quantitative readout": 1.00}
{"Compound": "Nc1nc2c(ncn2OC(CO)CCP(=O)(O)O)c(=O)[nH]1 (stereo not shown)", "Measured on": "visna virus (strain K184)", "Quantitative readout": 2.00}
